target: α2 B adrenergic receptor (rat kidney cortex membranes) (Rattus norvegicus); construct: Membrane suspensions were prepared from human cerebral cortex (HCC), HT-29 cells (HT) and rat kidney cortex (RtKC); from tissue; host or cells: rat kidney cortex membranes; test: Alpha2 B (rat kidney) receptor binding assay
Sequence (P19328 whole entry): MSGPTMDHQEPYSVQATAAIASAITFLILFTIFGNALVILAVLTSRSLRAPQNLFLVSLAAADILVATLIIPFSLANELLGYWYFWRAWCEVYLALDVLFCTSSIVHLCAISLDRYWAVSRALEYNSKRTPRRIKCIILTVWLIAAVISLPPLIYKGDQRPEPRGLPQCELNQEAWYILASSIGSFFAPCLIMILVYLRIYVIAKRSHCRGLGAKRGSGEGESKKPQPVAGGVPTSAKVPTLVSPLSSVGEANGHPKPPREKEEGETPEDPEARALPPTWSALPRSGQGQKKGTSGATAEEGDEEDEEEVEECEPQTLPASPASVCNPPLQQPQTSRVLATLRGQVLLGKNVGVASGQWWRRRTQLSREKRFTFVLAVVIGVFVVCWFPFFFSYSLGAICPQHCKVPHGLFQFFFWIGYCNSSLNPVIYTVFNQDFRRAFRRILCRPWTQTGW
pKi: −log10 of the molar value.

>  <Smiles str>
Cc1ccccc1N=C1NCCN1

>  <Study target>
α2 B adrenergic receptor (rat kidney cortex membranes) (Rattus norvegicus)

>  <pKi>
7.60

$$$$
>  <Smiles str>
c1cc2c(c(NC3=NCCO3)c1)CCCC2

>  <Study target>
α2 B adrenergic receptor (rat kidney cortex membranes) (Rattus norvegicus)

>  <pKi>
8.21

$$$$
>  <Smiles str>
Cc1cccc(NC2=NCCO2)c1C

>  <Study target>
α2 B adrenergic receptor (rat kidney cortex membranes) (Rattus norvegicus)

>  <pKi>
8.07

$$$$
>  <Smiles str>
Cc1cccc(N=C2NCCN2)c1C

>  <Study target>
α2 B adrenergic receptor (rat kidney cortex membranes) (Rattus norvegicus)

>  <pKi>
8.82

$$$$

----------
target: α2 B adrenergic receptor (rat kidney cortex membranes) (Rattus norvegicus); construct: Membrane suspensions were prepared from human cerebral cortex (HCC), HT-29 cells (HT) and rat kidney cortex (RtKC); from tissue; host or cells: rat kidney cortex membranes; test: Alpha2 B (rat kidney) receptor binding assay; conditions: rat kidney cortex membranes; 0° C., 120 minutes; [3H] radioligand; read-out: α2 B Ki
pKi: −log10 of the molar value.
Attribute measured: pKi

>  <Smiles str>
Cc1ccccc1NC1=NCCO1

>  <Study target>
α2 B adrenergic receptor (rat kidney cortex membranes) (Rattus norvegicus)

>  <Attribute measured>
pKi

>  <Value observed>
6.68

$$$$

----------
target: α1 adrenergic receptor (human cerebral cortex membranes); assay: Alpha1 (human brain) receptor binding assay; conditions: 22° C., 30 minutes, [3H] radioligand
Attribute measured: Ki (nM)

>  <Smiles str>
Cc1ccccc1NC1=NCCO1

>  <Value observed>
7400

$$$$
>  <Smiles str>
Cc1ccccc1N=C1NCCN1

>  <Value observed>
2170

$$$$
>  <Smiles str>
Cc1cccc(NC2=NCCO2)c1C

>  <Value observed>
1210

$$$$
>  <Smiles str>
Cc1cccc(N=C2NCCN2)c1C

>  <Value observed>
434

$$$$

----------
target: α2 A adrenergic receptor (HT-29 cells) (Homo sapiens, UniProt P08913); construct: Membrane suspensions were prepared from human cerebral cortex (HCC), HT-29 cells (HT) and rat kidney cortex (RtKC); endogenous in cells; experiment: Alpha2 A (HT-29 cells) receptor binding assay
Sequence (P08913 whole entry): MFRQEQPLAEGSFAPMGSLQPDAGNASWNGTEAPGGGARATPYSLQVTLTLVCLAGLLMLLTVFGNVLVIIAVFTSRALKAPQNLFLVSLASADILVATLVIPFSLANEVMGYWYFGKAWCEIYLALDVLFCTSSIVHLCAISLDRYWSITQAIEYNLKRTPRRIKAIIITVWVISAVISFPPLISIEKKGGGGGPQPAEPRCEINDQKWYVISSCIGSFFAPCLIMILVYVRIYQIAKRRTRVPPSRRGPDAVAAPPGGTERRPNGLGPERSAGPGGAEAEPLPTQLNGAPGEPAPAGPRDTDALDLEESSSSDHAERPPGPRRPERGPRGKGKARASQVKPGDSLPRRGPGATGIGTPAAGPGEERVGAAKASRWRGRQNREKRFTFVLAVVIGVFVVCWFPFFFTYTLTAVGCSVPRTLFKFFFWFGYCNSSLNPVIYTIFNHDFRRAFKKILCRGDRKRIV
Recorded log10 of Ki values for a group of molecules are listed next.
Attribute measured: log10 of Ki (log10 of the value in nM)

>  <Smiles str>
Cc1cccc(N=C2NCCN2)c1C

>  <log10 of Ki>
0.76

$$$$
>  <Smiles str>
Cc1cccc(NC2=NCCO2)c1C

>  <log10 of Ki>
0.71

$$$$
>  <Smiles str>
Cc1ccccc1NC1=NCCO1

>  <log10 of Ki>
1.55

$$$$
>  <Smiles str>
Cc1ccccc1N=C1NCCN1

>  <log10 of Ki>
0.88

$$$$
>  <Smiles str>
c1cc2c(c(NC3=NCCO3)c1)CCCC2

>  <log10 of Ki>
0.34

$$$$
